We begin with a simple list: items and their reported kd.
# System Tested: Macaca fascicularis PRLR (mfPRLR.mmh; SEQ ID NO:403)
# Sequence (as listed by the source): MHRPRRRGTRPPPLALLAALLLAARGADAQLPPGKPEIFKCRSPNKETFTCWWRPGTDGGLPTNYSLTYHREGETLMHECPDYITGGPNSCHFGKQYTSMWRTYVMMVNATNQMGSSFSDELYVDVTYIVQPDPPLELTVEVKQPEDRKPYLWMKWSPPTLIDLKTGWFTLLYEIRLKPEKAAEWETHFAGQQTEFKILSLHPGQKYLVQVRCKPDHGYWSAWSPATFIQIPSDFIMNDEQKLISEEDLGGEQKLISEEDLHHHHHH
# Test Protocol: Surface plasmon resonance (Biacore T200), antibody-capture format
# Assay type: binding
# Test Settings: 37° C., analyte mfPRLR.mmh

| Molecule | kd / s⁻¹ |
| --- | --- |
| H1H6953N: anti-PRLR antibody, human IgG1 Fc form of H1M6953N of Table 1; HCVR/LCVR SEQ ID NOs 274/282 (antibody, V domains shown) VH: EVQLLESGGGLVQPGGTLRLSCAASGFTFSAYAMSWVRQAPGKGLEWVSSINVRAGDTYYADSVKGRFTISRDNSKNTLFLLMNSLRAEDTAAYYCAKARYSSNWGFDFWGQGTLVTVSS VL: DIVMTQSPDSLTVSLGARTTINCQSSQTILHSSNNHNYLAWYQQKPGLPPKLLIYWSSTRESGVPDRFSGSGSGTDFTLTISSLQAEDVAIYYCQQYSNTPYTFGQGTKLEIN | 0.00256 |
| H1H6804P: fully human anti-PRLR antibody, human IgG1 Fc; HCVR/LCVR SEQ ID NOs 242/250 (antibody, V domains shown) VH: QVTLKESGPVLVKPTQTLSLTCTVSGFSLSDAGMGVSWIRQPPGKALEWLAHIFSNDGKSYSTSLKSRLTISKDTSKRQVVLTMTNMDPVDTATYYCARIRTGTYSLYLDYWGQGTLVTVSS VL: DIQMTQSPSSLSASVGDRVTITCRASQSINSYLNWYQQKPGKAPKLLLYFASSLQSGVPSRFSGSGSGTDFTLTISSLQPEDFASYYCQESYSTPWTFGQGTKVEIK | 0.00426 |
| H1H6967N: anti-PRLR antibody, human IgG1 Fc form of H2M6967N of Table 1; HCVR/LCVR SEQ ID NOs 354/362 (antibody, V domains shown, human IgG1 Fc) VH: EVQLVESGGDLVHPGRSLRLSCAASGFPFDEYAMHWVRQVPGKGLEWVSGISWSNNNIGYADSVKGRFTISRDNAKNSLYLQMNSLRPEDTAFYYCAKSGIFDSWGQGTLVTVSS VL: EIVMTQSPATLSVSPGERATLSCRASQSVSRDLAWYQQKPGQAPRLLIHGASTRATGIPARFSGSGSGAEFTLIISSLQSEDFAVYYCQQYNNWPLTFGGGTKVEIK | 0.00162 |
| H1H6959N2: anti-PRLR antibody, human IgG1 Fc form of H2M6959N2 of Table 1; HCVR/LCVR SEQ ID NOs 306/314 (antibody, V domains shown) VH: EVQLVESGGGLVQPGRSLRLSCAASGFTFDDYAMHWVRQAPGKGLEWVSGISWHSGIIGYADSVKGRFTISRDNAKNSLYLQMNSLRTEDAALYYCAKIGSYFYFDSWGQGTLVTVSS VL: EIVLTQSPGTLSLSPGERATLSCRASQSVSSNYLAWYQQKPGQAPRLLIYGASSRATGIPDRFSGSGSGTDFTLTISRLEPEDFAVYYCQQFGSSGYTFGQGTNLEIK | 0.0165 |
